Data provenance: ChEMBL document CHEMBL3351755

Reported pKd is given for each of the following molecules.
# procedure-details: Binding affinity to mouse major urinary protein by NMR analysis
FYI, pKd means -log10 of a concentration in mol per litre.

Solved entries (count: 2):
# molecule, observable, measured-number
records = [
    ("CCC(C)C1=NCCS1 (stereo not drawn)", "pKd", 6.05),
    ("c1ccc(Nc2cccc3ccccc23)cc1", "pKd", 7.49),
]

Let's switch to this molecule now.
In: State the recorded pKd for this entry: `COc1nccnc1CC(C)C`
Out: 6.52
